Entries annotated with measured melting point

Worked examples, 2 compounds total:
INSERT INTO measurements (chemical_string, val) VALUES
  ('CC(C)(O)c1ccc(C#Cc2cnn3c(C4CC4)cc(-c4ccc(Cl)cc4)nc23)cc1', '148 to 150 °C'),
  ('CN(C)S(=O)(=O)c1ccc(C#Cc2cnn3c(C(F)(F)F)cc(-c4ccc(C(F)(F)F)cc4)nc23)cc1', '226 to 227 °C');

INPUT: Given the compound "Nc1ncc(C#Cc2cnc3c(F)cc(-c4ccc(Cl)cc4)cn23)cn1" , what is its reported melting point?
OUTPUT: 279 to 280 °C

INPUT: Would you mind doing "NC(=O)c1ccc(C#Cc2cnn3c(C(F)F)cc(-c4ccc(C(F)(F)F)cc4)nc23)cn1" as well?
OUTPUT: 276 to 277 °C

INPUT: Would you mind doing "Cc1cc(C#Cc2cnn3c(C(F)(F)F)cc(-c4ccc(C(F)(F)F)cc4)nc23)cnc1N" as well?
OUTPUT: 233 to 234 °C

INPUT: Would you mind doing "Cc1cc(C#Cc2cnn3c(C(F)F)cc(-c4ccc(C(F)(F)F)cc4)nc23)cnc1N" as well?
OUTPUT: 194 to 195 °C

INPUT: Would you mind doing "NS(=O)(=O)c1cc(C#Cc2cnn3c(C(F)(F)F)cc(-c4ccc(C(F)(F)F)cc4)nc23)ccc1F" as well?
OUTPUT: 254 to 255 °C

INPUT: Would you mind doing "COCCNS(=O)(=O)c1cccc(C#Cc2cnn3c(C(F)F)cc(-c4ccc(C(F)(F)F)cc4)nc23)c1" as well?
OUTPUT: 147 to 148 °C

====

Entries annotated with measured melting point

Worked examples, 3 compounds total:
INSERT INTO assay_data (chemical_string, property_label, val) VALUES
  ('NS(=O)(=O)c1cccc(C#Cc2cnn3c(C(F)(F)F)cc(-c4cccc(C(F)(F)F)c4)nc23)c1', 'melting point', '193 °C'),
  ('CC(CO)(CO)NS(=O)(=O)c1cncc(C#Cc2cnn3c(C(F)F)cc(-c4ccc(C(F)(F)F)cc4)nc23)c1', 'melting point', '204 to 206 °C'),
  ('NS(=O)(=O)c1ccc(C#Cc2cnc3c(C(F)(F)F)cc(-c4ccc(C(F)(F)F)cc4)cn23)cc1', 'melting point', '278 to 280 °C');

INPUT: Given the compound "CC(C)(CO)NS(=O)(=O)c1cccc(C#Cc2cnn3c(C(F)(F)F)cc(-c4ccc(C(F)(F)F)cc4)nc23)c1" , what is its reported melting point?
OUTPUT: 201 to 204 °C

====

Entries annotated with measured melting point
Supply the numeric figure in °C, leaving out any unit text.

INSERT INTO assay_data (chemical_string, val) VALUES
  ('Cc1cc(-c2cc(C(F)(F)F)n3ncc(C#Cc4cccc(S(N)(=O)=O)c4)c3n2)ccc1Cl', 234);

INPUT: Given the molecule "Nc1ccc(C#Cc2cnc3c(C4CC4)cc(-c4ccc(Cl)cc4)cn23)cn1" , what is its reported melting point?
OUTPUT: 246

INPUT: Would you mind doing "CN1CCN(S(=O)(=O)c2ccc(C#Cc3cnn4c(C(F)F)cc(-c5ccc(C(F)(F)F)cc5)nc34)s2)CC1" as well?
OUTPUT: 226

INPUT: Would you mind doing "Cc1cc(-c2cc(C(F)F)n3ncc(C#Cc4cccc(S(N)(=O)=O)c4)c3n2)ccc1Cl" as well?
OUTPUT: 215

INPUT: Would you mind doing "Cc1cc(-c2cc(C(F)F)n3ncc(C#Cc4ccc(S(N)(=O)=O)cc4)c3n2)ccc1Cl" as well?
OUTPUT: 237

INPUT: Would you mind doing "Cc1ccc(C#Cc2cnn3c(C(F)(F)F)cc(-c4ccc(C(F)(F)F)cc4)nc23)cn1" as well?
OUTPUT: 195

INPUT: Would you mind doing "Cc1cc(-c2cc(C(F)F)n3ncc(C#Cc4ccc(S(=O)(=O)N5CCN(C)CC5)s4)c3n2)ccc1Cl" as well?
OUTPUT: 191

====

Property label: melting point

Worked examples, 5 molecules total:
INSERT INTO measurements (chemical_string, property_label, val) VALUES
  ('Cc1cc(CNS(=O)(=O)c2ccc(C#Cc3cnn4c(C(F)(F)F)cc(-c5ccc(C(F)(F)F)cc5)nc34)s2)cc(C)n1', 'melting point', '200 °C'),
  ('CC(CO)(CO)NS(=O)(=O)c1cccc(C#Cc2cnn3c(C(F)F)cc(-c4ccc(C(F)(F)F)cc4)nc23)c1', 'melting point', '172 to 174 °C'),
  ('O=S(=O)(Nc1cccnc1)c1ccc(C#Cc2cnn3c(C(F)F)cc(-c4ccc(C(F)(F)F)cc4)nc23)s1', 'melting point', '226 °C'),
  ('COc1ccc(C#Cc2cnn3c(C4CC4)cc(-c4ccc(C(F)(F)F)cc4)nc23)cc1S(=O)(=O)NC(C)(C)CO', 'melting point', '192 to 195 °C'),
  ('CCOc1cccc(-c2cc(C(F)F)n3ncc(C#Cc4cccc(S(N)(=O)=O)c4)c3n2)c1', 'melting point', '167 to 168 °C');

INPUT: Given the molecule "NS(=O)(=O)c1cc(C#Cc2cnn3c(C(F)(F)F)cc(-c4cccc(C(F)(F)F)c4)nc23)c(F)cc1F" , what is its reported melting point?
OUTPUT: 264 °C

INPUT: Would you mind doing "NS(=O)(=O)c1cc(C#Cc2cnn3c(C4CC4)cc(-c4ccc(C(F)(F)F)cc4)nc23)c(F)cc1F" as well?
OUTPUT: 255 to 257 °C

INPUT: Would you mind doing "Nc1ccc(C#Cc2cnn3c(CO)cc(-c4ccc(Cl)cc4)nc23)cn1" as well?
OUTPUT: 215 to 217 °C

INPUT: Would you mind doing "NS(=O)(=O)c1ccc(C#Cc2cnn3c(C4CC4)cc(-c4ccc(C(F)(F)F)cc4)nc23)cc1" as well?
OUTPUT: 228 to 230 °C

====

Property label: melting point

INSERT INTO results (molecule, val) VALUES
  ('N#Cc1cc(C#Cc2cnn3c(C(F)(F)F)cc(-c4ccc(C(F)(F)F)cc4)nc23)cnc1N', '264 °C');

INPUT: Given the molecule "NS(=O)(=O)c1cccc(C#Cc2cnn3c(C4CC4)cc(-c4ccc(Cl)c(Cl)c4)nc23)c1" , what is its reported melting point?
OUTPUT: 200 to 202 °C

INPUT: Would you mind doing "NS(=O)(=O)c1ccc(C#Cc2cnc3c(C(F)(F)F)cc(-c4ccc(C(F)(F)F)cc4)cn23)s1" as well?
OUTPUT: 248 to 250 °C

INPUT: Would you mind doing NS(=O)(=O)c1cccc(C#Cc2cnn3c(C(F)(F)F)cc(-c4ccc(Cl)cc4)nc23)c1 [Example 99] as well?
OUTPUT: 290 to 293 °C

====

Entries annotated with measured melting point

Worked examples, 5 compounds total:
INSERT INTO results (compound, val) VALUES
  ('O=S(=O)(NC(CO)CO)c1ccc(C#Cc2cnn3c(C(F)(F)F)cc(-c4cccc(C(F)(F)F)c4)nc23)s1', '210 °C'),
  ('NS(=O)(=O)c1ccc(C#Cc2cnn3c(C(F)(F)F)cc(-c4cccc(C(F)(F)F)c4)nc23)cc1', '264 °C'),
  ('Cc1cc(-c2cc(C(F)(F)F)n3ncc(C#Cc4ccc(S(=O)(=O)NCCN(C)C)s4)c3n2)ccc1Cl', '179 °C'),
  ('Cc1cc(-c2ccc(C(F)(F)F)cc2)cn2c(C#Cc3ccc(S(N)(=O)=O)s3)cnc12', '270 °C'),
  ('NS(=O)(=O)c1ccc(C#Cc2cnn3c(C(F)F)cc(-c4cccc(C(F)(F)F)c4)nc23)cc1', '245 °C');

INPUT: Given the compound "FC(F)(F)c1ccc(-c2cc(C(F)(F)F)n3ncc(C#Cc4ccnc(Cl)n4)c3n2)cc1" , what is its reported melting point?
OUTPUT: 192 to 195 °C

INPUT: Would you mind doing "Cc1nc(N)ccc1C#Cc1cnn2c(C(F)(F)F)cc(-c3ccc(C(F)(F)F)cc3)nc12" as well?
OUTPUT: 251 to 254 °C

INPUT: Would you mind doing "CC(C)(CO)NS(=O)(=O)c1cnc(C#Cc2cnc3c(C(F)(F)F)cc(-c4ccc(C(F)(F)F)cc4)cn23)s1" as well?
OUTPUT: 202 to 203 °C

INPUT: Would you mind doing "NS(=O)(=O)c1cccc(C#Cc2cnc3c(C(F)(F)F)cc(-c4ccc(C(F)(F)F)cc4)cn23)c1" as well?
OUTPUT: 240 °C

INPUT: Would you mind doing "O=S(=O)(NC(CO)CO)c1ccc(C#Cc2cnn3c(C(F)F)cc(-c4ccc(C(F)(F)F)cc4)nc23)s1" as well?
OUTPUT: 152 °C

INPUT: Would you mind doing "NS(=O)(=O)c1ccc(C#Cc2cnn3c(C(F)(F)F)cc(-c4ccc(C(F)(F)F)cc4)nc23)cc1" as well?
OUTPUT: 266 to 267 °C

INPUT: Would you mind doing "O=S(=O)(c1cccc(C#Cc2cnn3c(C(F)F)cc(-c4ccc(C(F)(F)F)cc4)nc23)c1)N1CCOCC1" as well?
OUTPUT: 175 to 176 °C

INPUT: Would you mind doing "O=S(=O)(NCCO)c1cccc(C#Cc2cnn3c(C(F)(F)F)cc(-c4ccc(C(F)(F)F)cc4)nc23)c1" as well?
OUTPUT: 213 °C

INPUT: Would you mind doing "CC(C)(CO)NS(=O)(=O)c1ccc(C#Cc2cnn3c(C(F)(F)F)cc(-c4ccc(C(F)(F)F)cc4)nc23)s1" as well?
OUTPUT: 272 °C
